We begin with a simple list: items and their reported EC50.
Test system: HSV-2
Experiment: HSV-2 CPE inhibition in HFF cells
Settings: Human alphaherpesvirus 2, HFF, read-out: HSV-2 CPE Inhibition EC50
quantity.measured: EC50

compound	tgt	meas.value
COc1ccc(-c2cc(=O)c3c(OC)cc(OC)c(C4C(=O)c5c(OC)cc(OC)cc5OC4c4ccc(OC)cc4)c3o2)cc1 (stereo not drawn)	HSV-2	> 100 µg/mL
O=C1CC(c2ccc(O)cc2)Oc2cc(O)c(-c3c(O)cc4c(c3O)C(=O)CC(c3ccc(O)cc3)O4)c(O)c21 (stereo not drawn)	HSV-2	> 20 µg/mL
O=c1cc(-c2ccc(Oc3c(O)cc4oc(-c5ccc(O)cc5)cc(=O)c4c3O)cc2)oc2cc(O)cc(O)c12	HSV-2	> 20 µg/mL

====

// IC50 lookup, one value per entry
Experiment: Cytotoxicity by neutral red dye uptake, BSC-1 cells
Details: African green monkey
quantity.measured: IC50

compound	quantity.measured	meas.value
O=c1cc(-c2ccc(O)c(-c3c(O)cc4oc(-c5ccc(O)cc5)cc(=O)c4c3O)c2)oc2cc(O)cc(O)c12 [Robustaflavone (3), robustaflavone]	IC50	~100 µg/mL
O=C1CC(c2ccc(O)cc2)Oc2cc(O)c(-c3c(O)cc(O)c4c3OC(c3ccc(O)cc3)CC4=O)c(O)c21 (stereo not shown) [Rhusflavanone (9), rhusflavanone]	IC50	40 µg/mL
COc1ccc(-c2cc(=O)c3c(OC)cc(OC)c(C4C(=O)c5c(OC)cc(OC)cc5OC4c4ccc(OC)cc4)c3o2)cc1 (stereo not shown) [Volkensiflavone hexamethyl ether (6), volkensiflavone hexamethyl ether]	IC50	< 13 µg/mL
O=C1CC(c2ccc(O)cc2)Oc2cc(O)c(-c3c(O)cc4c(c3O)C(=O)CC(c3ccc(O)cc3)O4)c(O)c21 (stereo not shown) [Succedaneaflavanone (11), succedaneaflavanone]	IC50	< 20 µg/mL

====

Test system: HCMV
Test: HCMV CPE inhibition in HFF cells
Details: HFF Cells
Each record here notes measured HCMV SI (CC50/EC50).

compound	HCMV SI (CC50/EC50)
O=c1cc(-c2ccc(O)c(-c3c(O)cc(O)c4c(=O)cc(-c5ccc(O)cc5)oc34)c2)oc2cc(O)cc(O)c12	>1.9
CC(=O)Oc1ccc([C@@H]2CC(=O)c3c(cc(OC(C)=O)c(-c4c(OC(C)=O)cc5c(c4OC(C)=O)C(=O)C[C@@H](c4ccc(OC(C)=O)cc4)O5)c3OC(C)=O)O2)cc1 [Succedaneaflavanone hexaacetate (12), succedaneaflavanone hexaacetate]	<3.5

====

Assay: in vitro
Conditions: human, HSV-1 CPE Inhibition CC50
Recorded CC50 at 3 days, one value per entry.

compound.structure.string	inequality.sign	CC50 at 3 days / µg/mL
O=c1cc(-c2ccc(Oc3c(O)cc4oc(-c5ccc(O)cc5)cc(=O)c4c3O)cc2)oc2cc(O)cc(O)c12	=	77.7
O=c1cc(-c2ccc(O)c(-c3c(O)cc(O)c4c(=O)cc(-c5ccc(O)cc5)oc34)c2)oc2cc(O)cc(O)c12	>	100

====

Tested on: Hepatitis B Virus (HBV)
Assay: Inhibition of HBV replication in 2.2.15 cells, extracellular (virion) HBV DNA;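 also: extracellular virion HBV DNA in culture medium measured by slot blot hybridization with a 32P-labeled HBV probe, quantified against HBV DNA standards, after 9 days of daily dosing, compared with day 0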
Details: read-out: EC50 (50% effective dose), HBV Virion; 2.2.15 cells, extracellular (virion) HBV DNA, 9 days treatment
pEC50: −log10 of the molar value. Where a name gives a salt, the structure may show the parent alone.
pEC50 values by entry

compound	pEC50
CC(=O)Oc1ccc(-c2cc(=O)c3c(OC(C)=O)c(-c4cc(-c5cc(=O)c6c(OC(C)=O)cc(OC(C)=O)cc6o5)ccc4OC(C)=O)c(OC(C)=O)cc3o2)cc1 [Robustaflavone Hexaacetate, robustaflavone hexaacetate]	6.14
Nc1ccn([C@H]2CC[C@@H](CO)O2)c(=O)n1 [2′,3′-ddC, 2′,3′-dideoxycytosine, reference compound]	5.74
O=c1cc(-c2ccc(O)c(-c3c(O)cc4oc(-c5ccc(O)cc5)cc(=O)c4c3O)c2)oc2cc(O)cc(O)c12 [Robustaflavone sodium salt, Robustaflavone tetrasodium salt]	5.51
COc1ccc(-c2cc(=O)c3c(OC)c(-c4cc(-c5cc(=O)c6c(OC)cc(OC)cc6o5)ccc4OC)c(OC)cc3o2)cc1	5.54
CC(=O)Oc1ccc([C@@H]2CC(=O)c3c(cc(OC(C)=O)c(-c4c(OC(C)=O)cc5c(c4OC(C)=O)C(=O)C[C@@H](c4ccc(OC(C)=O)cc4)O5)c3OC(C)=O)O2)cc1 [Succedaneaflavanone hexaacetate (12), succedaneaflavanone hexaacetate]	5.46
